- target.desc: SEAP-His (Homo sapiens, UniProt P05187)
- Sequence (P05187 23-511 limits assumed): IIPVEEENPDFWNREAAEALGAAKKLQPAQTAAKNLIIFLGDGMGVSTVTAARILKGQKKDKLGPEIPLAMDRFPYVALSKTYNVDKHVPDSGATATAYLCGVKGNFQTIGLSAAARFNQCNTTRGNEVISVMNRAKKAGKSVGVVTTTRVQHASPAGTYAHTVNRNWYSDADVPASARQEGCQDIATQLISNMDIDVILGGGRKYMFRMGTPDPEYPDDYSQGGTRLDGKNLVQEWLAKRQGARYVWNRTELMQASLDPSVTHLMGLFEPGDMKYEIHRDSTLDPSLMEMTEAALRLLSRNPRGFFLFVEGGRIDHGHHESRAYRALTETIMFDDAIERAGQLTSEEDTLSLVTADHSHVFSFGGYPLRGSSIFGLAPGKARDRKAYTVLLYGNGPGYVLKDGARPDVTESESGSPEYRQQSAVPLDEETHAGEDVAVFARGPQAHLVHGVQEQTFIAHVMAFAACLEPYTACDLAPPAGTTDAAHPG
- measurement.description: Selectivity ELISA of humanized antibodies for human Eph receptor
- Type: binding
- condition.info: coated protein 1 nM
- Excerpt: According to the method described in Example 7, a DNA sequence encoding the signal sequence and the extracellular region of each human Eph receptor (EphA1, EphA2, EphA3, EphA4, EphA5, EphA6, EphA7, EphA8, EphA10, EphB1, EphB2, EphB3, EphB4, and EphB6) was amplified by RT-PCR using tissue-derived total RNA and cloned into a pENTR1A vector (Invitrogen/Life Technologies) having a DNA sequence encoding SEAP protein and histidine tag. […]
The following molecules are listed with their measured SEAP-His: absorbance at 450 nm, percentage with respect to hEphA4-SEAP-His as 100% values.
Output spec: scalar in %, unitless text.

# molecule, unit.abbrev, test.value
records = [
    ("95 (antibody, V domains shown, constant regions without entry; synthetic humanized antibody light chain variable region sequence; synthetic humanized antibody heavy chain variable region sequence) VL: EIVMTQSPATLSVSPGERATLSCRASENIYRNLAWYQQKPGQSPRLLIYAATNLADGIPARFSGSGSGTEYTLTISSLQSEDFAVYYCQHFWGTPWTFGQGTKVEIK VH: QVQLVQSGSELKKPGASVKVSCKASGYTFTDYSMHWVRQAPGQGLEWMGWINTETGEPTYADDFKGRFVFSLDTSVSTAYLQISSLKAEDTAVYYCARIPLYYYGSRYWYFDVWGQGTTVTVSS", "%", 4.4),
    ("143 (antibody, V domains shown, synthetic humanized antibody heavy chain variable region sequence; synthetic humanized antibody light chain variable region sequence) VH: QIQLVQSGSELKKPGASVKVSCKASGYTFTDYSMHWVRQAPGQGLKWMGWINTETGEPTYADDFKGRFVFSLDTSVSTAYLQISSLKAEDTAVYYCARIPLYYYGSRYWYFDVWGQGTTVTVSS VL: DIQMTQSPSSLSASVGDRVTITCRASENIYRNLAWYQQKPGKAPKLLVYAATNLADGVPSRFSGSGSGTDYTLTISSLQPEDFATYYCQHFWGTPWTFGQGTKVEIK", "%", 6.3),
    ("157 (antibody, V domains shown, synthetic humanized antibody heavy chain variable region sequence; synthetic humanized antibody light chain variable region sequence) VH: QVQLVQSGSELKKPGASVKVSCKASGYTFTDYSMHWVRQAPGQGLEWMGWINTETGEPTYAQGFTGRFVFSLDTSVSTAYLQISSLKAEDTAVYYCARIPLYYYGSRYWYFDVWGQGTTVTVSS VL: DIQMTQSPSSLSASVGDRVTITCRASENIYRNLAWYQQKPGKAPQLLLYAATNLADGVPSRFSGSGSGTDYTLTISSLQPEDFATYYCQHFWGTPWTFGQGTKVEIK", "%", 6.1),
]

*Q* Please give the measured SEAP-His: absorbance at 450 nm, percentage with respect to hEphA4-SEAP-His as 100% for this molecule: 140 (antibody, V domains shown, synthetic humanized antibody heavy chain variable region sequence; synthetic humanized antibody light chain variable region sequence) VH: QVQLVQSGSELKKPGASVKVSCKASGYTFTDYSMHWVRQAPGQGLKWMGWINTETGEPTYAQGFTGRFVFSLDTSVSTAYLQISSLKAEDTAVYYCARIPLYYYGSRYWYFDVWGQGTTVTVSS VL: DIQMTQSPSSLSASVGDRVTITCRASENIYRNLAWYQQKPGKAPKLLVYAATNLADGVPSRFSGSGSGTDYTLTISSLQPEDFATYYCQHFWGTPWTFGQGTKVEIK
*A* 5.4

src = patent US10428140B2
